Reference for the values: the supplement of paper PMC8728848

measured_on: Man(a1-2)Man(a1-2)Man(a1-6)[Man(a1-3)]Man
test_name: glycan array binding signal (z-score within array); higher = stronger binding
settings: glycan notation: IUPAC condensed, linker removed
This is one part of a sample in which the strongest signals are shown more often than they occur.
reported_metric: glycan array binding signal (z-score)

Some solved entries appear below for comparison.
{"binder": "Tamarinin (protein) CDDSARAGNIVVYWGQGGSDNSEGSLKEACKSGHYNMIVLQQLIVYDDGRDPDLNLGAHCSDCTKLEEQIKYCQNKDIKILLQIGQVVPTQEDVKDVTKNLSEYLLKNFFSGKSGPLGEVYLNGIDIASVPEGNNLKFDELVEALNDSSTERRIYLSASPLCVYPDYYLNKAIQTEKLDFLFVQFFYQNPCIYTEGNPENLFEAMKTWTKNVPESMIFMALPATPNLDGYIPPRVLNKEILPAVSEASNFAGVMIFDRYFDRFRKYSSKIK", "glycan array binding signal (z-score)": 14.1}
{"binder": "PMA (Polygonatum multiflorum) (protein) LLTTTLFVFISSTRSLASTNVLYSDVGNAILNAKESLIYGDYRLDMQSDCNLVLYNKAAPYWASGTRWSWGGNCHLNLQSNGELVMYAYLGRTRIAIWRSGIISATGSYALVLKYDGALHVHGPSLWSTNATGPTTPTTASWSIDSTLWSGDVATIGPTIANGDYKLELLDTCNLTLSNTKTGQVLWYTNTTDWVHDCYVNIEGNGELKIKYLGGATLWSNKVGAGYTNNYVLGLRPDGKLDTYNAPIWSPTIGPGVHVAPAVYNASSNAVAAEGNGEKIAMVTGRAKNST", "glycan array binding signal (z-score)": 5.65}
{"binder": "VLRB.aGPA.23-GCN4-biotin (Petromyzon marinus) (protein) ACPSQCSCSGTEVNCAGKSLASVPAGIPTTTRVLYLNSNQITKLEPGVFDRLANLRELHLWGNQLVSLPPGVFDNLANLEKLWLNSNQLTSLPAGLFDRLVNLEHLGLCCMKLTELPSGAFDKLTRLKQLGLDQNQLKSIPDGAFARLPSLTHVWLHTNPWDCQCTDILYLSGWVAQHSSIVGEGWPWRHSPDSAKCSGTNTPVRAVTEASTSPSKCP", "glycan array binding signal (z-score)": -0.059}
{"binder": "Clec2 (Mus musculus), Q9JL99 (protein) MQDEDGYITLNIKPRKQALSSAEPASSWWRVMALVLLISSMGLVVGLVALGIMSVTQQKYLLAEKENLSATLQQLAKKFCQELIRQSEIKTKSTFEHKCSPCATKWRYHGDSCYGFFRRNLTWEESKQYCTEQNATLVKTASQSTLDYIAERITSVRWIGLSRQNSKKDWMWEDSSVLRKNGINLSGNTEENMNCAYLHNGKIHPASCKERHYLICERNAGMTRVDQLL", "glycan array binding signal (z-score)": -0.215}
{"binder": "PP2A1 (Arabidopsis thaliana) (protein) MFRNQDSKYLIPVQKEAPPVTTLPMKASTVKSPHNCEAILRDADPPISLSSVNLSEQLRSGVFLKPKKQIKYWVDERNSNCFMLFAKNLSITWSDDVNYWTWFTEKESPNENVEAVGLKNVCWLDITGKFDTRNLTPGIVYEVVFKVKLEDPAYGWDTPVNLKLVLPNGKEKPQEKKVSLRELPRYKWVDVRVGEFVPEKSAAGEITFSMYEHAAGVWKKGLSLKGVAIRPKQHHHHHH", "glycan array binding signal (z-score)": 0.03}

Now consider the entry below.
Data request: Return reported glycan array binding signal (z-score); argument: Langerin K313I (Homo sapiens), Q9UJ71 (protein) STLNAQIPELKSDLEKASALNTKIRALQGSLENMSKLLKRQNDILQVVSQGWKYFKGNFYYFSLIPKTWYSAEQFCVSRNSHLTSVTSESEQEFLYKTAGGLIYWIGLTKAGMEGDWSWVDDTPFNKVQSARFWIPGEPNNAGNNEHCGNIKAPSLQAWNDAPCDITFLFICKRPYVPSEP
Data returned: 7.95
